Recorded values, source paper PMC6001687.

# Method Notes: Plasma pharmacokinetics after topical application, QBX1‐2 study
# Format: in vivo, human
# Condition Parameters: human, plasma, topical, 5 g of 3% ointment
Endpoint Name: AUC(0-t) (ng·h/mL)
Response body: numeric value in ng·h/mL, unit text excluded.

Sample C[C@H]1CN(C(=O)CC#N)[C@]12CCN(c1ncnc3[nH]ccc13)C2 [JTE‐052] ; AUC(0-t) observed: 77

* * *

# Method Notes: Urine pharmacokinetics after topical application, QBX1‐2 study
# Type: in vivo, human
# Condition Parameters: human, urine and plasma, topical, 5 g of 3% ointment twice daily
Endpoint Name: CL renal (mL/min)
Express your answer in mL/min, writing the number without its unit.

Item: C[C@H]1CN(C(=O)CC#N)[C@]12CCN(c1ncnc3[nH]ccc13)C2 [JTE‐052] | CL renal: 330
